Target: ENaC (Epithelial Sodium Channel) (Mus musculus, UniProt Q61180+Q9WU38+Q9WU39)
Construct: Mouse kidney M-1 cells were cultivated in DMEM; endogenous in cells
Sequence (Q61180 1-699): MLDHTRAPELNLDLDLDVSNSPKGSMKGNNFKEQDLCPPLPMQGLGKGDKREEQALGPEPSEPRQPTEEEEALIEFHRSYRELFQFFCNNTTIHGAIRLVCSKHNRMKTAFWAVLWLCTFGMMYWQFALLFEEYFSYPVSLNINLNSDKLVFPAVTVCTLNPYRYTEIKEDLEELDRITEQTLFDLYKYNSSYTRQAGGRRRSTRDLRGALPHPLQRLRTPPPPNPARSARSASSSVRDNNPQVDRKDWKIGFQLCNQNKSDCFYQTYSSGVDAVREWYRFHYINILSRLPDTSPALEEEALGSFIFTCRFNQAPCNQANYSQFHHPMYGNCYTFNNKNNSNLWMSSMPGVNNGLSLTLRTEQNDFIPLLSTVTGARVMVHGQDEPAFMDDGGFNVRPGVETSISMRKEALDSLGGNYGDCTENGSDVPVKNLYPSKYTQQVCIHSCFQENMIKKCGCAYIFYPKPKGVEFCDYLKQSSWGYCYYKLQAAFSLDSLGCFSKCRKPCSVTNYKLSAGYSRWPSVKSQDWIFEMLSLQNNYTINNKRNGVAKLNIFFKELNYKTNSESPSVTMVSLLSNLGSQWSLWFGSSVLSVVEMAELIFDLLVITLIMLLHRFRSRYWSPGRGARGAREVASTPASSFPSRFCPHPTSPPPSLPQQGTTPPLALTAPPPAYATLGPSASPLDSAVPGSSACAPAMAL
Sequence (Q9WU38 1-638): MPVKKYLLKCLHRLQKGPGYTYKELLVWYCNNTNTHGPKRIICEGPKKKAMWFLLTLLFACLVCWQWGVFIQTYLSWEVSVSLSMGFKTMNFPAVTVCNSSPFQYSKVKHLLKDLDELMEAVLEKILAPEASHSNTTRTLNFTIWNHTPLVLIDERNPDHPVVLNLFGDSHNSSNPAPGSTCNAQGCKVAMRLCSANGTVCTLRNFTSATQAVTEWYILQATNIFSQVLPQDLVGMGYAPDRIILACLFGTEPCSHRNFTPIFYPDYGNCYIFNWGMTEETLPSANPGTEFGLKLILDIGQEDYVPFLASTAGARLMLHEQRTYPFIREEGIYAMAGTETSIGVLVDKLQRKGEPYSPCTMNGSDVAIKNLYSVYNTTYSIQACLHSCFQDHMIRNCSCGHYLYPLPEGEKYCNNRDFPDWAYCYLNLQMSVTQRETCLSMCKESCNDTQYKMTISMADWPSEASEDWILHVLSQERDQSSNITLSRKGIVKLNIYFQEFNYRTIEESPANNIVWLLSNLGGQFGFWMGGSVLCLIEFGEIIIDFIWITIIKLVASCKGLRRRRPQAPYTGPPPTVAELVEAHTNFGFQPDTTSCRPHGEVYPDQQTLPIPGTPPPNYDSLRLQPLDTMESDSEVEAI
Sequence (Q9WU39 1-655): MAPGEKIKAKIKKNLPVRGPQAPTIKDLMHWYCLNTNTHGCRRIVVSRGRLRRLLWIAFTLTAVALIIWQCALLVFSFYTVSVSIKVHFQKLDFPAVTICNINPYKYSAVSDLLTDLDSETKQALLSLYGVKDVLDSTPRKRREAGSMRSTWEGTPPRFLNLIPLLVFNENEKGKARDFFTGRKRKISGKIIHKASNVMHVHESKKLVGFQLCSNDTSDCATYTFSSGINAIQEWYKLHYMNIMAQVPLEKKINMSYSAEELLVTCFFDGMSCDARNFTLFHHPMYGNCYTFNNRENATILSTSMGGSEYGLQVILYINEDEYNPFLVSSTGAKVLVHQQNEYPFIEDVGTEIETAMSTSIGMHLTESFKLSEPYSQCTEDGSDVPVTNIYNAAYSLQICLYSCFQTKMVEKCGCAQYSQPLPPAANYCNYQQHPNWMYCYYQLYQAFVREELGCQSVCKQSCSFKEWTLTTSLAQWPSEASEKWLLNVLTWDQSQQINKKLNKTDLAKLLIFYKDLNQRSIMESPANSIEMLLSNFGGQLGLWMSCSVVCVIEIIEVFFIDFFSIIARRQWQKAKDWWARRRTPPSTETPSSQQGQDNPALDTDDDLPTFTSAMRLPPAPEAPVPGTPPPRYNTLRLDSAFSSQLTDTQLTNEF
Assay: Ussing chamber: inhibition of amiloride sensitive short circuit current (I_sc) in M-1 cells
Settings: mouse kidney M-1 cells
Flag rule - IC50 less than 4 nM flags Condition met; the remaining entries get Condition not met.

Some solved entries appear below for comparison.
compound	class
COC(=O)CCc1ccc(CN2CCC(NC(N)=NC(=O)c3nc(Cl)c(N)nc3N)CC2)cc1	Condition not met
NC(N)=NCc1ccc(CN2CCC(N/C(N)=N/C(=O)c3nc(Cl)c(N)nc3N)CC2)cc1	Condition met
NC(=NC(=O)c1nc(Cl)c(N)nc1N)NC1CCCN(Cc2ccccc2)CC1 (stereo not shown)	Condition not met

### Prompt Item COC(=O)COc1ccc(CN2CC(NC(N)=NC(=O)c3nc(Cl)c(N)nc3N)C2)cc1 : IC50 beneath 4 nM, strictly?
### Response Condition not met

### Prompt Item NC(=NC(=O)c1nc(Cl)c(N)nc1N)NC1CCN(Cc2cccc(-c3cn(CCOCCOCCOCCOCCOCCO)nn3)c2)CC1 : IC50 beneath 4 nM, strictly?
### Response Condition not met

### Prompt Item COc1cc(C(=O)O)ccc1CN1CCC(NC(N)=NC(=O)c2nc(Cl)c(N)nc2N)CC1 : IC50 beneath 4 nM, strictly?
### Response Condition not met

### Prompt Item CN(C)CCCOc1ccc(CN2CCC(NC(N)=NC(=O)c3nc(Cl)c(N)nc3N)CC2)cc1 : IC50 beneath 4 nM, strictly?
### Response Condition not met

### Prompt Item NC(=NC(=O)c1nc(Cl)c(N)nc1N)NC1CCN(Cc2ccc(OCc3cn(CCOCCOCCOCCOCCOCCOC(c4ccccc4)(c4ccccc4)c4ccccc4)nn3)cc2)CC1 : IC50 beneath 4 nM, strictly?
### Response Condition not met

### Prompt Item NC(=NC(=O)c1nc(Cl)c(N)nc1N)NC1CCN(Cc2ccc(OCc3cn(CCOCCOCCO)nn3)cc2)CC1 : IC50 beneath 4 nM, strictly?
### Response Condition not met

### Prompt Item NC(=NC(=O)c1nc(Cl)c(N)nc1N)NC1CCN(Cc2cccc(-c3cn(CCOCCOCCOCCNCCOCCOCCOC(c4ccccc4)(c4ccccc4)c4ccccc4)nn3)c2)CC1 : IC50 beneath 4 nM, strictly?
### Response Condition met

### Prompt Item NC(=NC(=O)c1nc(Cl)c(N)nc1N)N[C@@H]1CCCN(Cc2ccc(C(=O)O)cc2)C1 : IC50 beneath 4 nM, strictly?
### Response Condition not met

### Prompt Item CC(C)(C)[Si](C)(C)OCCN(CCO[Si](C)(C)C(C)(C)C)C(=O)c1ccc(=O)n(CCc2cn(-c3ccc(CN4CCC(NC(N)=NC(=O)c5nc(Cl)c(N)nc5N)CC4)cc3)nn2)c1 : IC50 beneath 4 nM, strictly?
### Response Condition met

### Prompt Item NC(=NC(=O)c1nc(Cl)c(N)nc1N)NC1CCN(Cc2ccc(C(=O)NCCOCCOCCOCCn3cc(COC[B-](F)(F)F)nn3)cc2)CC1 : IC50 beneath 4 nM, strictly?
### Response Condition not met

----------
Target: ENaC (Epithelial Sodium Channel) (Mus musculus, UniProt Q61180+Q9WU38+Q9WU39)
Construct: Mouse kidney M-1 cells were cultivated in DMEM; endogenous in cells
Assay: Ussing chamber: inhibition of amiloride sensitive short circuit current (I_sc) in M-1 cells
Conditions: mouse kidney M-1 cells
Listing: IC50 of selected molecules
# output: numeric value plus its unit

Solved entries:
> print(dat)
                                   molecule                               test.system  reported
1  N/C(=N\C(=O)c1nc(Cl)c(N)nc1N)NC1CCN(Cc2ccc(C(=O)NCCOCCO)cc2)CC1 [Example 1.54]  ENaC (Epithelial Sodium Channel) (Mus musculus, UniProt Q61180+Q9WU38+Q9WU39)      4 nM
2  C#CCOc1ccc(CN2CCC(NC(N)=NC(=O)c3nc(Cl)c(N)nc3N)CC2)cc1 [Example 1.4]  ENaC (Epithelial Sodium Channel) (Mus musculus, UniProt Q61180+Q9WU38+Q9WU39)      4 nM
3  NC(=NC(=O)c1nc(Cl)c(N)nc1N)NC1CCN(Cc2ccc(CC(=O)O)cc2)CC1 [Example 8.13]  ENaC (Epithelial Sodium Channel) (Mus musculus, UniProt Q61180+Q9WU38+Q9WU39)     44 nM
4  CCOC(=O)c1ccc(=O)n(-c2ccc(CN3CCC(NC(N)=NC(=O)c4nc(Cl)c(N)nc4N)CC3)cc2)c1 [Example 1.16]  ENaC (Epithelial Sodium Channel) (Mus musculus, UniProt Q61180+Q9WU38+Q9WU39)     17 nM
5  NC(=NC(=O)c1nc(Cl)c(N)nc1N)NC1CCN(Cc2ccc(C(=O)NCCCn3ccnc3)cc2)CC1 [Example 1.23]  ENaC (Epithelial Sodium Channel) (Mus musculus, UniProt Q61180+Q9WU38+Q9WU39)      2 nM

Would you kindly look at the next entry?
The molecule listed as N/C(=N\C(=O)c1nc(Cl)c(N)nc1N)NC1CCN(Cc2ccccc2)CC1 [Example 1.25] has a reported IC50 of 6 nM
